SYSTEM TESTED: PABPC1 RRM1/2/3/4 (residues 1-370) (human, UniProt P11940 1-370)
Sequence (P11940 1-370): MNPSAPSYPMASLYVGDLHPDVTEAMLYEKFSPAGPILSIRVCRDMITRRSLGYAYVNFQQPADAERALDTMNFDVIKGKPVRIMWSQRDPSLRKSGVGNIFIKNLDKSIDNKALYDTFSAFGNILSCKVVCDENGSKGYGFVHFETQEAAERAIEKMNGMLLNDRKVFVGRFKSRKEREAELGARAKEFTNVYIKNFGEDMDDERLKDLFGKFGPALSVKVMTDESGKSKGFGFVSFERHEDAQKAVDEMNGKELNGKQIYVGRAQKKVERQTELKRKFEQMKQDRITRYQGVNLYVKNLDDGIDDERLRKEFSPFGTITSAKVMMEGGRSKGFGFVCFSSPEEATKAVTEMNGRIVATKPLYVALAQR
ASSAY EXPLANATION: NMR; RRM1/2/3/4 bound to A24 RNA; W437 signal
OUTCOME MEASURE: Kd (µM)
Field: numeric (µM). Do not append units.

Need Kd of AYYPPSQIAQLRPSPRWTAQGARPHPFQNMPGAIRPAAPRPPFSTMRPAS [PABPC1 linker fragment Lt2 (residues 421-470)] , thanks. 12

The values you see were collected from paper PMC5780489.
